# System: HEK293
# experimental.protocol: Cytotoxic Profiling of Annotated Libraries Using Quantitative High-Throughput Screening (AID 1296008); further: on the % scale 0 is the no-effect control and ±100 the full control effect; nearly all actives have a fitted effect of over 60% in size
# conditions.used: Five cell lines viability, CellTiter-Glo ATP luminescence, 48-72 h; stronger effect = lower value
Inconclusive results are not listed.
Each record here notes measured max response.
Kindly provide the numeric value in % only, without the unit symbol.

Consider the following illustrative entries.
{"compound": "O=P(O)(O)C(O)(Cn1ccnc1)P(=O)(O)O", "system.tested": "HEK293", "max response (%)": -11}
{"compound": "Cc1cc2cc3c(C)cc(=O)oc3c(C)c2o1", "system.tested": "HEK293", "max response (%)": -0.492}
{"compound": "COc1cc(C(C)=O)ccc1OCCCN1CCC(c2noc3cc(F)ccc23)CC1", "system.tested": "HEK293", "max response (%)": -12.6}
{"compound": "CCN(CCO)CCCC(C)Nc1ccnc2cc(Cl)ccc12 (stereo unspecified)", "system.tested": "HEK293", "max response (%)": 2.34}
{"compound": "O=c1c(O)c(-c2cc(O)c(O)c(O)c2)oc2cc(O)cc(O)c12", "system.tested": "HEK293", "max response (%)": -2.69}

Read the next record carefully.
Exercise: Could you tell me which max response is on file for `C[C@@H](c1ncncc1F)[C@](O)(Cn1cncn1)c1ccc(F)cc1F` ?
Solution: -20.1

====

# experimental.protocol: qHTS of pediatric cancer cell lines to identify multiple opportunities for drug repurposing: Primary screen for Saos-2 cells (AID 1347097); further: on the % scale 0 is the no-effect control and ±100 the full control effect; nearly all actives have a fitted effect of over 40% in size
# conditions.used: Saos-2 viability, CellTiter-Glo ATP luminescence, 48 h; series mostly up to 46 µM
Records with an inconclusive call do not appear. The source made the active and inactive calls. The call rests on the fitted dose curve; in most records, active means well fitted cell-killing curve with a large enough effect; inconclusive means small, poorly fitted or top-dose-only effect; inactive means no such curve, though single readings can be large or run the other way.
Could you please pick one outcome from this set? active, inactive

Solved entries:
{"compound": "Cc1cccc(-c2[nH]ncc2-c2ccc3ncccc3n2)n1", "cat": "inactive"}
{"compound": "CCOc1cc(CC(=O)N[C@@H](CC(C)C)c2ccccc2N2CCCCC2)ccc1C(=O)O", "cat": "inactive"}

Exercise: In this assay, the call recorded for `Oc1ccc(OCc2ccccc2)cc1` was what?
Solution: inactive

Exercise: In this assay, the call recorded for `NNc1nncc2ccccc12` was what?
Solution: inactive

Exercise: In this assay, the call recorded for `CCc1nc(N)nc(N)c1-c1ccc(Cl)cc1` was what?
Solution: inactive

Exercise: In this assay, the call recorded for `O=C1NC(=O)C(c2ccccc2[N+](=O)[O-])=C1Nc1ccc(O)c(Cl)c1` was what?
Solution: inactive

Exercise: In this assay, the call recorded for C[Se]CCC(N)C(=O)O (stereo not given) was what?
Solution: inactive

Exercise: In this assay, the call recorded for `CC(C)c1ccc2oc3nc(N)c(C(=O)O)cc3c(=O)c2c1` was what?
Solution: inactive

Exercise: In this assay, the call recorded for `C=CCc1cc(OC)c(O)c(C(=O)NCCO)c1` was what?
Solution: inactive

Exercise: In this assay, the call recorded for `O=C(O)CCNC(=O)c1ccc(N=Nc2ccc(O)c(C(=O)O)c2)cc1` was what?
Solution: inactive

Exercise: In this assay, the call recorded for `CN1C(C(=O)Nc2ccccn2)=C(O)c2sccc2S1(=O)=O` was what?
Solution: inactive

Exercise: In this assay, the call recorded for `O=C(O)c1cccc(-c2noc(-c3ccccc3F)n2)c1` was what?
Solution: inactive

Exercise: In this assay, the call recorded for `CN1CCC(=C2c3ccccc3CCc3sccc32)CC1` was what?
Solution: inactive

Exercise: In this assay, the call recorded for `Cc1cc(=O)oc2cc(O)ccc12` was what?
Solution: inactive

Exercise: In this assay, the call recorded for `COc1cc(C(C)=O)ccc1OCCCN1CCC(c2noc3cc(F)ccc23)CC1` was what?
Solution: inactive

Exercise: In this assay, the call recorded for `Cc1ccc(NC(=O)c2ccc(CN3CCN(C)CC3)cc2)cc1Nc1nccc(-c2cccnc2)n1` was what?
Solution: inactive

Exercise: In this assay, the call recorded for `CC(C)c1nc(CN(C)C(=O)N[C@H](C(=O)N[C@@H](Cc2ccccc2)C[C@H](O)[C@H](Cc2ccccc2)NC(=O)OCc2cncs2)C(C)C)cs1` was what?
Solution: inactive

Exercise: In this assay, the call recorded for `Cc1ccc(C)c(OCCCC(C)(C)C(=O)O)c1` was what?
Solution: inactive

Exercise: In this assay, the call recorded for CC1=C(C)C(=O)C(C(CCCCCC(=O)O)c2ccccc2)=C(C)C1=O (stereo not given) was what?
Solution: inactive
